System: HPPD polypeptides (wild-type SEQ ID NO:1 and mutants)
Conditions: in the presence of Cmpd. 1, 15 μM inhibitor, high substrate concentration; kapp normalized to kapp without inhibitor
assay.endpoint: Residual activity (%)
Give the value, in units of %, as a plain number.

Give me measured Residual activity, please, for this molecule: 18 (protein, mutant HPPD polypeptide) MADLYENPMGLMGFEFIEFASPTPGTLEPIFEIMGFTKVATHRSKNVHLYRQGEINLILNNEPNSIASYFAAEHGPSVCGMAFRVKDSQKAYNRALELGAQPIHIDTGPMELNLPAIKGIGGAPLYLIDRFGEGSSIYDIDFVYLEGVERNPVGAGLKVIDHLTHNVYRGRMVYWANFYEKLFNFREARYFDIKGEYTGLTSKAMSAPDGMIRIPLNEESSKGAGQIEEFLMQFNGEGIQHVAFLTDDLVKTWDALKKIGMRFRTAPPDTYYEMLEGRLPDHGEPVDQLQARGILLDGSSVEGDKRLLLQIFSETLMGPVFFEFIQRKGHDGFGPDSFKVLFESIERDQVRRGVLTAD 67
